system tested: human orexin 1 receptor (Homo sapiens)
Sequence (O43613 whole entry): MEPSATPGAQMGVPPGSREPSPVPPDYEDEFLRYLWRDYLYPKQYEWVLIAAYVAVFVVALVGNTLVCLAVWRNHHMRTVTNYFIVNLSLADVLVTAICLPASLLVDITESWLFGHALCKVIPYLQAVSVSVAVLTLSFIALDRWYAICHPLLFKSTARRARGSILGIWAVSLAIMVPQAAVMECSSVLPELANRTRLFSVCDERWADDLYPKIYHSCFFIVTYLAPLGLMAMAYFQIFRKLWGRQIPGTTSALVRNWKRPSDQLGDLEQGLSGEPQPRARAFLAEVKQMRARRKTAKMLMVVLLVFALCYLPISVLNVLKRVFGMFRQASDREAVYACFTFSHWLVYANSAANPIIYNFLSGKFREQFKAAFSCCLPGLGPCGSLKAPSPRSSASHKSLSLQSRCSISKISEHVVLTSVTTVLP
protocol notes: Calcium accumulation in cells (FLIPR), antagonism of orexin A, human orexin 1 receptor
protocol conditions: calcium accumulation, antagonism of orexin A, Cheng-Prusoff corrected; read-out: FLIPR hOx1R Ki
// reported Ki per item
Numeric answer only, unit nM assumed.

Record excerpt, results attached:
For record O=C1COCC2(CCN(c3cnc4ccccc4n3)CC2)N1Cc1cccc2[nH]ccc12 the listed Ki is 320

Per the records, this compound ( COc1cc(C)nc(N2CCC3(CCCN(Cc4c[nH]c5ncccc45)C3=O)C2)n1 (stereo not shown) ) has Ki equal to 299

Record COc1ccnc(N2CCC3(CCN(Cc4c[nH]c5ccccc45)C3=O)CC2)n1 . Reported Ki: 2770

Continue with the next compound.
For this compound ( O=C1CCC2(CCN(c3cnc4ccccc4n3)C2)N1Cc1cccc2[nH]ccc12 (stereo not shown) ), measured Ki is 666

====

system tested: human orexin 1 receptor (Homo sapiens)
protocol notes: Calcium accumulation in cells (FLIPR), antagonism of orexin A, human orexin 1 receptor
protocol conditions: calcium accumulation, antagonism of orexin A, Cheng-Prusoff corrected; read-out: FLIPR hOx1R Ki
property name: Ki (nM)
Please respond with the number in nM and leave the unit unwritten.

Examples with their reported Ki follow.
According to the records, this compound COc1cccc(-c2sc(C)nc2CN2CCNC3(CCN(c4nc(C)cc(C)n4)CC3)C2=O)c1 displays Ki of 766

For COc1cccc(-c2oc(C)nc2CN2CCNC3(CCN(c4nccc(OC)n4)CC3)C2=O)c1 the compound record lists Ki as 2090

Noted for COc1ccnc(N2CCC3(CCN(Cc4c[nH]c5ccccc45)C3=O)C2)c1 (stereo not shown) : its Ki reads 4350

The compound listed as COCCOc1cccc(-c2nn(C)nc2CN2CCNC3(CCN(c4nc(C)cc(C)n4)CC3)C2=O)c1 has a reported Ki of 1870

Record O=C1N(Cc2c[nH]c3ccccc23)CCC12CCN(c1ccnc(-n3ccnc3)n1)C2 (stereo not shown) . Reported Ki: 1190

The reported value for O=C1N(Cc2ccccc2-c2ccccc2)CCC12CCN(c1cnc3ccccc3n1)CC2 in terms of Ki is 1630

Entry Cc1cc(C)nc(N2CCC3(CC2)OCCN(Cc2n[nH]cc2-c2ccccc2)C3=O)n1 ; Ki = 1500

Recorded result, Cc1cc(C)nc(N2CCC3(CC2)NCCN(Cc2nn(C)nc2-c2ccc4c(c2)OCCO4)C3=O)n1 , Ki: 501

***
Measured Ki of O=C1COCC2(CCN(c3cnc4ccccc4n3)CC2)N1Cc1cccc(-c2cccnc2)c1 : 232

compound COc1cc(C)nc(N2CCC3(CC2)OCCN(Cc2c[nH]c4ncccc24)C3=O)n1 , Ki observed: 1490

====

Each entry below lists one item and its recorded inhibition at 10 µM value.
system tested: human orexin 1 receptor (Homo sapiens)
Construct: expressed in transfected cells
protocol notes: Calcium accumulation in cells (FLIPR), antagonism of orexin A, human orexin 1 receptor
Format: cell-based
protocol conditions: measured at a concentration of 10 μM of compound; read-out: FLIPR hOx1R % inhibition
// units = %; emit number, no label

Lab note: measured inhibition at 10 µM of COc1ccnc(N2CCC3(CCN(Cc4n[nH]c5ccccc45)C3=O)CC2)n1 was 39

Item: Cc1cc(C)nc(N2CCC3(CCN(Cc4ccc5[nH]ccc5c4)C3=O)CC2)n1 | inhibition at 10 µM: 10

Cc1cc(C)nc(N2CCC3(CC2)NCCN(Cc2conc2-c2ccccc2)C3=O)n1 yielded inhibition at 10 µM of 57

Query COCc1cccc(-c2oc(C)nc2CN2CCNC3(CCN(c4nc(C)cc(C)n4)CC3)C2=O)c1 yields inhibition at 10 µM of 51

Kindly note the recorded inhibition at 10 µM for CNC(=O)c1cccc(-c2cn(C)nc2CN2CCNC3(CCN(c4nc(C)cc(C)n4)CC3)C2=O)c1 , which is 20

inhibition at 10 µM reading for O=C1N(Cc2c[nH]c3ccccc23)CCC12CCN(c1ccc(-n3ccnc3)nn1)C2 (centres unmarked) : 34

inhibition at 10 µM recorded for this molecule, Cc1cc(C)nc(N2CCC3(CC2)NCCN(Cc2nn(C)cc2-c2ccccc2)C3=O)n1 , is 35

The record that follows has no inhibition at 10 µM shown yet.
Measured inhibition at 10 µM, O=C1COCC2(CCN(c3cnc4ccccc4n3)CC2)N1Cc1c[nH]c2ccccc12 : 33

// data source = patent US20120165331A1
